Test system: C57BL/6J mice
Test: Antifeeding activity (high fat diet intake up to 4 hours)
Type: in vivo
Conditions: Mus musculus, male C57BL/6J mice, 5 mg/kg oral, food ingested up to 4 hours, read-out: Antifeeding rate (5 mg/kg)
Procedure: 7 to 10 weeks-old male C57BL/6J mice were fasted overnight, and the test compound suspended in 0.2% carboxymethylcellulose solution was orally administered. […] An amount of food ingested up to 4 hours was measured, and a lowering rate (an antifeeding rate) of the amount of food ingested in the Test compound administered group was calculated as compared to that of the solvent control group as a control.
inhibition in vivo at 5 mg/kg values, listed per item

>  <mol.smiles>
Cc1cc(OCC(C)(C)C(=O)O)ncc1-c1ccc(-c2ncc(CC(C)C)[nH]2)cc1

>  <system.name>
C57BL/6J mice

>  <inhibition in vivo at 5 mg/kg / %>
62

$$$$
>  <mol.smiles>
CC(C)CCc1cnc(-c2ccc(-c3ccc(OCC(C)(C)C(=O)O)cc3)nc2)[nH]1

>  <system.name>
C57BL/6J mice

>  <inhibition in vivo at 5 mg/kg / %>
81

$$$$
>  <mol.smiles>
Cc1cc(OCC(C)(C)C(=O)O)ncc1-c1cnc(-c2ncc(C(F)(F)F)[nH]2)cn1

>  <system.name>
C57BL/6J mice

>  <inhibition in vivo at 5 mg/kg / %>
83

$$$$
>  <mol.smiles>
Cc1cc(OCC(C)(C)C(=O)O)ncc1-c1ccc(-c2ncc(C(F)(F)F)[nH]2)c(Cl)c1

>  <system.name>
C57BL/6J mice

>  <inhibition in vivo at 5 mg/kg / %>
83

$$$$
